- assayed target: Estrogen receptor (Rattus norvegicus) (UniProt P06211+Q62986)
recorded endpoint: NSB

Study these solved cases before continuing.
INSERT INTO results (molecule, recorded_endpoint, reported_value) VALUES
  ('CC[C@H]1C[C@]2(C)[C@@H](O)[C@@H](F)C[C@H]2[C@@H]2CCc3cc(O)ccc3[C@@H]12', 'NSB', 1.6),
  ('C#C[C@]1(O)[C@@H](F)C[C@H]2[C@@H]3CCc4cc(O)ccc4[C@H]3[C@@H](OC)C[C@@]21C', 'NSB', 0.67),
  ('C#C[C@]1(O)CC[C@H]2[C@@H]3CCc4cc(O)ccc4[C@H]3[C@@H](OC)C[C@@]21C [MOXESTROL]', 'NSB', 0.76),
  ('C[C@]12CC[C@@H]3c4ccc(O)cc4CC[C@H]3[C@@H]1C[C@H](F)[C@@H]2O', 'NSB', 0.63);

a = CCC1C[C@]2(C)[C@@H](O)CC[C@H]2[C@@H]2CCc3cc(O)ccc3[C@@H]12 (stereo not given in full)
b = CO[C@H]1C[C@]2(C)[C@@H](O)CC[C@H]2[C@@H]2CCc3cc(O)ccc3[C@H]21
Which has the higher NSB, a or b ? Kindly give the label for the entry you pick.
a
(a: 2.1, b: 0.57)

====

- assayed target: Sex hormone-binding globulin (Homo sapiens) (UniProt P04278)
- Sequence (whole entry): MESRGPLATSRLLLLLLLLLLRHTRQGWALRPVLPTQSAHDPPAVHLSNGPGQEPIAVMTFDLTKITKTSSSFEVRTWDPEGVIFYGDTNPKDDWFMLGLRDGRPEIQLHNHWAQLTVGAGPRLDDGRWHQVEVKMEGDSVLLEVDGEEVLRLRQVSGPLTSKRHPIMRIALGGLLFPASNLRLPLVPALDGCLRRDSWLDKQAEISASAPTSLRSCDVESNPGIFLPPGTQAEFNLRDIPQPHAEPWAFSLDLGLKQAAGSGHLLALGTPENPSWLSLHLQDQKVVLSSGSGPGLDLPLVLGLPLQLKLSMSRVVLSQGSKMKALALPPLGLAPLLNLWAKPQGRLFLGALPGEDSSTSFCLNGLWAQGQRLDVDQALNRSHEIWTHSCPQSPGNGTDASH
- method summary: Relative binding affinity against sex steroid binding protein (SBP)
recorded endpoint: relative binding affinity (RBA)

INSERT INTO results (compound, reported_value) VALUES
  ('C#C[C@]1(O)CC[C@H]2[C@@H]3CCc4cc(O)ccc4[C@H]3C(CC)C[C@@]21C (some centres not stated)', 41.2);

1 = C#C[C@]1(O)[C@@H](F)C[C@H]2[C@@H]3CCc4cc(O)ccc4[C@H]3CC[C@@]21C
2 = C#C[C@]1(O)CC[C@H]2[C@@H]3CCc4cc(O)ccc4[C@H]3CC[C@@]21C
Which entry shows the lesser value of relative binding affinity (RBA) here, 1 or 2 ? Pick one and reply with its label.
1
(1: 0.589, 2: 1.81)

A = CO[C@H]1C[C@]2(C)[C@@H](O)[C@@H](F)C[C@H]2[C@@H]2CCc3cc(O)ccc3[C@H]21
B = CC[C@H]1C[C@]2(C)[C@@H](O)[C@@H](F)C[C@H]2[C@@H]2CCc3cc(O)ccc3[C@@H]12
C = C#C[C@]1(O)[C@@H](F)C[C@H]2[C@@H]3CCc4cc(O)ccc4[C@H]3[C@@H](OC)C[C@@]21C
D = CCC1C[C@]2(C)[C@@H](O)CC[C@H]2[C@@H]2CCc3cc(O)ccc3[C@@H]12 (some centres not stated)
// sort entries: relative binding affinity (RBA), high to low Provide the labels, sequenced as the question asks.
D, B, A, C
(D: 40.8, B: 0.55, A: 0.087, C: 0.037)

I = C[C@]12CC[C@@H]3c4ccc(O)cc4CC[C@H]3[C@@H]1C[C@H](F)[C@@H]2O
II = C[C@]12CC[C@@H]3c4ccc(O)cc4CC[C@H]3[C@@H]1CC[C@@H]2O
III = C#C[C@]1(O)CC[C@H]2[C@@H]3CCc4cc(O)ccc4[C@H]3[C@@H](OC)C[C@@]21C
Hello, I need these entries ordered by relative binding affinity (RBA), highest reading first. Thanks! Respond with an ordered listing of the labels, as requested.
II, I, III
(II: 100, I: 8.9, III: 0.071)

P = C#C[C@]1(O)[C@@H](F)C[C@H]2[C@@H]3CCc4cc(O)ccc4[C@H]3[C@@H](CC)C[C@@]21C
Q = CO[C@H]1C[C@]2(C)[C@@H](O)CC[C@H]2[C@@H]2CCc3cc(O)ccc3[C@H]21
Hi team, can someone confirm which has the larger relative binding affinity (RBA): P or Q ? Thanks. Use the label to indicate which entry you chose.
P

====

Observed BSI, system Estrogen receptor (Rattus norvegicus) (UniProt P06211+Q62986).
recorded endpoint: BSI

Consider the following illustrative entries.
INSERT INTO measurements (compound, assayed_target, recorded_endpoint, reported_value) VALUES
  ('CO[C@H]1C[C@]2(C)[C@@H](O)CC[C@H]2[C@@H]2CCc3cc(O)ccc3[C@H]21', 'Estrogen receptor (Rattus norvegicus) (UniProt P06211+Q62986)', 'BSI', 151),
  ('C#C[C@]1(O)CC[C@H]2[C@@H]3CCc4cc(O)ccc4[C@H]3[C@@H](OC)C[C@@]21C [MOXESTROL]', 'Estrogen receptor (Rattus norvegicus) (UniProt P06211+Q62986)', 'BSI', 243),
  ('CCC1C[C@]2(C)[C@@H](O)CC[C@H]2[C@@H]2CCc3cc(O)ccc3[C@@H]12 (stereo partly specified)', 'Estrogen receptor (Rattus norvegicus) (UniProt P06211+Q62986)', 'BSI', 648),
  ('C#C[C@]1(O)[C@@H](F)C[C@H]2[C@@H]3CCc4cc(O)ccc4[C@H]3[C@@H](CC)C[C@@]21C', 'Estrogen receptor (Rattus norvegicus) (UniProt P06211+Q62986)', 'BSI', 189);

P = C#C[C@]1(O)[C@@H](F)C[C@H]2[C@@H]3CCc4cc(O)ccc4[C@H]3[C@@H](OC)C[C@@]21C
Q = CO[C@H]1C[C@]2(C)[C@@H](O)[C@@H](F)C[C@H]2[C@@H]2CCc3cc(O)ccc3[C@H]21
When P and Q are compared, which has the higher number for BSI? Give the chosen item's label as your response.
P
(P: 116, Q: 34)

====

- System: Rattus norvegicus
- method summary: Tested in vivo for the biodistribution in rat ovaries at 1 hour after intravenous dose of 120 microCi of drug in 10%ethanol saline
- Format: ADME, organism-based, Female gonad
recorded endpoint: Injected (dose/g) (%)
Express your answer in %, writing the number without its unit.

According to the records, this compound `C[C@]12CC[C@@H]3c4ccc(O)cc4CC[C@H]3[C@@H]1C[C@H](F)[C@@H]2O` displays Injected (dose/g) of 1.91

====

- method summary: Partition coefficient (logP)
- Type: physicochemical
- setup conditions: octanol/water
recorded endpoint: logP

INSERT INTO results (compound, reported_value) VALUES
  ('CCC1C[C@]2(C)[C@@H](O)CC[C@H]2[C@@H]2CCc3cc(O)ccc3[C@@H]12 (some centres not stated)', 3.9),
  ('C#C[C@]1(O)[C@@H](F)C[C@H]2[C@@H]3CCc4cc(O)ccc4[C@H]3[C@@H](OC)C[C@@]21C', 2.87),
  ('CO[C@H]1C[C@]2(C)[C@@H](O)CC[C@H]2[C@@H]2CCc3cc(O)ccc3[C@H]21', 2.72),
  ('C#C[C@]1(O)[C@@H](F)C[C@H]2[C@@H]3CCc4cc(O)ccc4[C@H]3CC[C@@]21C', 3.3),
  ('CC[C@H]1C[C@]2(C)[C@@H](O)[C@@H](F)C[C@H]2[C@@H]2CCc3cc(O)ccc3[C@@H]12', 3.72),
  ('C[C@]12CC[C@@H]3c4ccc(O)cc4CC[C@H]3[C@@H]1C[C@H](F)[C@@H]2O', 2.81),
  ('C#C[C@]1(O)CC[C@H]2[C@@H]3CCc4cc(O)ccc4[C@H]3CC[C@@]21C', 3.42),
  ('C#C[C@]1(O)[C@@H](F)C[C@H]2[C@@H]3CCc4cc(O)ccc4[C@H]3[C@@H](CC)C[C@@]21C', 4.12),
  ('C#C[C@]1(O)CC[C@H]2[C@@H]3CCc4cc(O)ccc4[C@H]3C(CC)C[C@@]21C (some centres not stated)', 4.28),
  ('CO[C@H]1C[C@]2(C)[C@@H](O)[C@@H](F)C[C@H]2[C@@H]2CCc3cc(O)ccc3[C@H]21', 2.35),
  ('C#C[C@]1(O)CC[C@H]2[C@@H]3CCc4cc(O)ccc4[C@H]3[C@@H](OC)C[C@@]21C', 3.01),
  ('C[C@]12CC[C@@H]3c4ccc(O)cc4CC[C@H]3[C@@H]1CC[C@@H]2O', 3.26);
